# Tested on: PCSK9 gene
# protocol: PCSK9 gRNA/SpCas9 editing in primary cynomolgus hepatocytes (Tables 2, 22)
# Type: cell-based, cynomolgus monkey
# cond: 2500 ng/RNA/mL; SpCas9 mRNA MS002 1:1 by weight
m = 2'-O-methyl; r = 2'-OH (RNA)
Reported Cyno Primary Hepatocyte Editing % 2500 values follow for various molecules
parameter: Cyno Primary Hepatocyte Editing % 2500 (%)

GA194: PCSK9 gRNA; protospacer GTCGACATGGGGCAACTTCA (SEQ ID NO: 188) (nucleic acid, sugars from the 5' end m3 r94 m3, linkages s3 o93 s3 (s phosphorothioate, o phosphodiester), T or U not given here) guide: GUCGACAUGGGGCAACUUCAGUUUUAGAGCUAGAAAUAGCAAGUUAAAAUAAGGCUAGUCCGUUAUCAACUUGAAAAAGUGGCACCGAGUCGGUGCUUUU | 30.91
GA211: PCSK9 gRNA; protospacer TGCGCGTGCTCAACTGCCAA (SEQ ID NO: 205) (nucleic acid, sugars from the 5' end m3 r94 m3, linkages s3 o93 s3 (s phosphorothioate, o phosphodiester), T or U not given here) guide: UGCGCGUGCUCAACUGCCAAGUUUUAGAGCUAGAAAUAGCAAGUUAAAAUAAGGCUAGUCCGUUAUCAACUUGAAAAAGUGGCACCGAGUCGGUGCUUUU | 28.63
GA240: PCSK9 gRNA; protospacer TGCCAGCGCCTGGCGAGGGC (SEQ ID NO: 233) (nucleic acid, sugars from the 5' end m3 r94 m3, linkages s3 o93 s3 (s phosphorothioate, o phosphodiester), T or U not given here) guide: UGCCAGCGCCUGGCGAGGGCGUUUUAGAGCUAGAAAUAGCAAGUUAAAAUAAGGCUAGUCCGUUAUCAACUUGAAAAAGUGGCACCGAGUCGGUGCUUUU | 10.62
